Test system: TK-10
Assay: NCI tumour cell line growth inhibition, 48 h
The source made the active and inactive calls. Cut-off read from the data, not from the text of the source: active = GI50 up to about 1.1 µM and inactive = higher.
Would you mind telling me the reported GI50 of each entry?

// solved cases for GI50 follow
- COMPOUND: "Cn1cnc([N+](=O)[O-])c1Sc1nc2ccccc2o1"
  TARGET_UNDER_TEST: "TK-10"
  REPORTED_RESULT: "10.5 µM (inactive)"
- COMPOUND: "CCOC(=O)c1cc2c3c(c(O)c(OC)c2s1)N(C(=O)c1cc2c4c(c(O)c(OC)c2s1)N(C(C)=O)CC4)CC3"
  TARGET_UNDER_TEST: "TK-10"
  REPORTED_RESULT: "> 100 µM (inactive)"
- COMPOUND: "C=C(Cl)/C(=C\\Cl)CCC(Br)C(C)C (stereo unspecified)"
  TARGET_UNDER_TEST: "TK-10"
  REPORTED_RESULT: "> 100 µM (inactive)"
- COMPOUND: "Cc1cc(Cl)nc(Nc2nc3ccccc3[nH]2)n1"
  TARGET_UNDER_TEST: "TK-10"
  REPORTED_RESULT: "> 100 µM (inactive)"
- COMPOUND: "CCN(CC)C(=S)SC [METHYLDIETHYL CARBAMODITHIOATE]"
  TARGET_UNDER_TEST: "TK-10"
  REPORTED_RESULT: "> 100 µM (inactive)"

Lab note: next compound to report on.
CCOC(=O)N(CC)c1c(C(F)(F)F)cc(-c2ccccc2)[nH]c1=O has a reported GI50 of 97.9 µM (inactive)

----------
Tested on: MOLT-4
Assay: NCI tumour cell line growth inhibition, 48 h
Calls of active or inactive are those of the source. Cut-off read from the data, not from the text of the source: active = GI50 up to about 1.1 µM and inactive = higher.
Would you mind telling me the reported GI50 of each entry?

// solved cases for GI50 follow
- COMPOUND: "N#C/N=C1/c2ccccc2/C(=N/C#N)c2cc(CO)ccc21"
  OBSERVABLE: "GI50"
  REPORTED_RESULT: "16.4 µM (inactive)"
- COMPOUND: "O=c1oc2ccccc2c(O)c1C1c2c(c3ccccc3oc2=O)Oc2c1c(=O)oc1ccccc21"
  OBSERVABLE: "GI50"
  REPORTED_RESULT: "47.5 µM (inactive)"
- COMPOUND: "CC1=CC(=O)/C(=C/n2c(=S)[nH]c3ccc([N+](=O)[O-])cc32)C(=O)O1"
  OBSERVABLE: "GI50"
  REPORTED_RESULT: "> 100 µM (inactive)"
- COMPOUND: "COc1ccc2c(c1)C(=O)CCc1cc(OC)c(OC)c(OC)c1-2"
  OBSERVABLE: "GI50"
  REPORTED_RESULT: "0.0564 µM (active)"
- COMPOUND: "CC(C)(C)OC(=O)CN1C(=O)CC1CC(=O)c1ccccc1 (stereo unspecified)"
  OBSERVABLE: "GI50"
  REPORTED_RESULT: "4.39 µM (inactive)"

# map each compound to its GI50
1. C=C1C[C@@H](O)[C@@H](Br)C(C)(C)[C@@]12C=CC(O)(CBr)CC2 (stereo partly specified)
2. Oc1ccc(-c2nc(-c3ccc4ccccc4n3)c(-c3ccc(F)cc3)[nH]2)cc1
3. CCCCSC(=CC(=O)c1cccc(C(=O)C=C(SCCCC)SCCCC)n1)SCCCC
4. Cc1cccc(/C=N/N=C(\N)NO)n1
5. C/C=C1\Oc2ccc(OC)cc2S1(=O)=O
6. CCN(CC)c1ncnc2c1ncn2CCNC(CO)(CO)CO

[A]
1: 21.4 µM (inactive); 2: 1.87 µM (inactive); 3: > 100 µM (inactive); 4: 51.4 µM (inactive); 5: > 100 µM (inactive); 6: > 100 µM (inactive)

----------
System: NCI-H522
Experiment: NCI tumour cell line growth inhibition, 48 h
The source made the active and inactive calls. Rule as the data show it: active = GI50 up to about 1.1 µM and inactive = higher.
OBSERVABLE: GI50

# map each compound to its GI50
1. FC(F)(F)c1nc2cc(SSc3cc4nc(C(F)(F)F)[nH]c4cc3Cl)c(Cl)cc2[nH]1
2. Nc1ccccc1/C(O)=C1/CCOC1=O

[A]
1. 66.4 µM (inactive)
2. > 100 µM (inactive)

# map each compound to its GI50
1. CCN(CC)C(=O)Cn1c(-c2ccccc2)cc2ccccc21
2. CCOC(=O)C(SCCO)C(C(=O)OCC)n1ccc(N)nc1=O (configuration not stated)
3. [N-]=[N+]=Nc1c([N+](=O)[O-])c(=O)n(-c2ccccc2)c2ccccc12
4. C=CCSc1ncnc2c1ncn2C1OC(CO)C(O)C1O (configuration not stated)

[A]
["28 µM (inactive)", "> 100 µM (inactive)", "25.8 µM (inactive)", "11.9 µM (inactive)"]

# map each compound to its GI50
1. CSc1c(C(N)=S)c(N)nn1-c1ccccc1
2. Cc1ccc(-c2cc(-c3ccco3)nc(N)n2)o1
3. O=C(O/N=C1/CCC/C1=C\c1ccccc1)c1ccc(Cl)cc1

[A]
["> 100 µM (inactive)", "> 100 µM (inactive)", "> 58.2 µM (inactive)"]

# map each compound to its GI50
1. C=C1CCCC(C)(C)C1CCC1(C)CCC(C(C)C(=O)OC)OO1 (configuration not stated)
2. CCCOC(=O)C1C2CCC(O2)C1C(=O)O (configuration not stated)
3. Cc1cccc(NC(Nc2cccc(C)c2)=C(C(Cl)=C(Cl)Cl)[N+](=O)[O-])c1

[A]
3.34 µM (inactive)
> 100 µM (inactive)
6.52 µM (inactive)

----------
Tested on: NCI-H226
Test: NCI tumour cell line growth inhibition, 48 h
Activity calls are given as the source filed them. Rule as the data show it: active = GI50 up to about 1.1 µM and inactive = higher.
Would you mind telling me the reported GI50 of each entry?

- MOLECULE: "COc1ccc(/C(Cl)=C(\\C=O)c2ccc([N+](=O)[O-])cc2)cc1"
  GI50: "14.1 µM (inactive)"
- MOLECULE: "Cc1cc(Oc2cnc(=O)[nH]c2)cs1"
  GI50: "> 100 µM (inactive)"

# map each molecule to its GI50
1. C=C(Br)C/N=C/N(C)C
2. COc1cc(CC(=O)c2cc3c(cc2-c2ccccc2)OCO3)cc(OC)c1OC
3. CCOC(=O)c1cc2c3c(c(O)c(OC)c2s1)N(C(=O)c1cc2c4c(c(O)c(OC)c2s1)N(C(C)=O)CC4)CC3
4. NC1CCC[C@H]1O (stereo partly specified)

[A]
["> 100 µM (inactive)", "14 µM (inactive)", "50.4 µM (inactive)", "> 100 µM (inactive)"]

----------
Test system: MOLT-4
Assay: NCI tumour cell line growth inhibition, 48 h
The source made the active and inactive calls. Rule as the data show it: active = GI50 up to about 1.1 µM and inactive = higher.
OBSERVABLE: GI50

// solved cases for GI50 follow
- COMPOUND: "CN(C)c1ccc(/C=C2\\C[C@H]3[C@@H]4CCc5cc(O)ccc5[C@H]4CC[C@]3(C)C2=O)cc1"
  REPORTED_RESULT: "> 100 µM (inactive)"
- COMPOUND: "O=[N+]([O-])C=C1c2ccccc2-c2ccccc21"
  REPORTED_RESULT: "3.7 µM (inactive)"
- COMPOUND: "O=c1c2ccccc2[nH]c2c(O)ccc(O)c12"
  REPORTED_RESULT: "7.91 µM (inactive)"

# map each compound to its GI50
1. CN1c2ccccc2NC(CC(=O)O)C2CC=CN21 (stereo unspecified)
2. NNC(=O)C(O)C(O)C(=O)NN (stereo unspecified)

[A]
["> 100 µM (inactive)", "64.3 µM (inactive)"]

# map each compound to its GI50
1. COc1ccc(NC(=O)/C(CC2=Nc3ccc([N+](=O)[O-])cc3NC2O)=N\NC(=O)C[N+](C)(C)C)c(OC)c1 (stereo unspecified)
2. CCOC(=O)C(C)N1C(=O)c2ccccc2S1(=O)=O (stereo unspecified)
3. OC(c1ccccc1)(c1ccccc1)c1ccccn1

[A]
["> 100 µM (inactive)", "> 100 µM (inactive)", "> 100 µM (inactive)"]

# map each compound to its GI50
1. COc1cc(S(=O)(=O)Nc2ccc(-c3csc(N4C(=O)CSC4c4cccc(Oc5ccccc5)c4)n3)cc2)ccc1Cl (stereo unspecified)
2. COC(=O)CCC(=O)Nc1cccc(C(F)(F)F)c1
3. C=C(Br)C/N=C/N(C)C

[A]
1: 52 µM (inactive); 2: > 100 µM (inactive); 3: > 100 µM (inactive)

----------
Test system: NCI-H23
Assay: NCI tumour cell line growth inhibition, 48 h
Active and inactive are the calls of the source. No stated cut-off is given here; in the data, active = GI50 up to about 1.1 µM and inactive = higher.
OBSERVABLE: GI50

// solved cases for GI50 follow
- COMPOUND: "O=C1Nc2ccc(S(=O)(=O)O)cc2/C1=N/Nc1ccccc1[N+](=O)[O-]"
  REPORTED_RESULT: "> 100 µM (inactive)"
- COMPOUND: "CCCCCCCCCCCCCCCC(=O)OCC1OC(N2C(=O)/C(=N\\NC(N)=S)c3ccc([N+](=O)[O-])cc32)C(OC(C)=O)C1OC(C)=O (stereo not given)"
  REPORTED_RESULT: "> 100 µM (inactive)"
- COMPOUND: "COc1cc2c(c(OC)c1OC)-c1ccc(SC)cc1C(O)CC2 (stereo not given)"
  REPORTED_RESULT: "< 0.01 µM (active)"

# map each compound to its GI50
1. N#Cc1nc(-c2ccco2)oc1N
2. OCCSCC(O)Cn1cnc2c(O)nc(Nc3ccccc3)nc21 (stereo not given)

[A]
1: > 10 µM (inactive); 2: > 100 µM (inactive)

Hey, just so you know, these numbers are from ChEMBL document CHEMBL1201862.
